molecular target: Protein-arginine deiminase type-4 (Homo sapiens); assay: single-point PAD isozyme enzyme inhibition – biochemical, colorimetric, BAEE substrate, HTS hits, selectivity assay for PAD4 inhibitor project, late-stage follow-up (AID 588488); settings: Recombinant PAD1-4, BAEE citrulline colorimetric absorbance; PAD4; at 10 µM; active compounds read high
Each item that follows carries a reported inhibition.
TEST READOUT: inhibition (%)

COMPOUND: COc1ccc(CCNC(=O)COC(=O)c2ccc(C)s2)cc1
TARGET ENTITY: Protein-arginine deiminase type-4 (Homo sapiens)
TEST READOUT: inhibition
OBSERVED RESULT: 3
--
COMPOUND: CCN(CC)S(=O)(=O)c1ccc(N=NC2=C(O)CCCC2=O)cc1
TARGET ENTITY: Protein-arginine deiminase type-4 (Homo sapiens)
TEST READOUT: inhibition
OBSERVED RESULT: 10
--
COMPOUND: COc1cccc(NC(=O)CN(C)C(=O)C23CC4CC(CC(Cl)(C4)C2)C3)c1
TARGET ENTITY: Protein-arginine deiminase type-4 (Homo sapiens)
TEST READOUT: inhibition
OBSERVED RESULT: 26
--
COMPOUND: COc1ccc(-c2cc(=O)[nH][nH]2)cc1
TARGET ENTITY: Protein-arginine deiminase type-4 (Homo sapiens)
TEST READOUT: inhibition
OBSERVED RESULT: 20
--
COMPOUND: N#CCCN(C(=O)Cn1nc(C(=O)O)c2ccccc2c1=O)c1ccccc1
TARGET ENTITY: Protein-arginine deiminase type-4 (Homo sapiens)
TEST READOUT: inhibition
OBSERVED RESULT: 17
--
COMPOUND: Cc1cc2ncn(-c3ncccc3[N+](=O)[O-])c2cc1C
TARGET ENTITY: Protein-arginine deiminase type-4 (Homo sapiens)
TEST READOUT: inhibition
OBSERVED RESULT: 24
--
COMPOUND: Cc1c(NC(=O)CSc2nccn2C)c(=O)n(-c2ccccc2)n1C
TARGET ENTITY: Protein-arginine deiminase type-4 (Homo sapiens)
TEST READOUT: inhibition
OBSERVED RESULT: 0
--
COMPOUND: O=c1cc(-c2ccc(Cl)cc2)[nH][nH]1
TARGET ENTITY: Protein-arginine deiminase type-4 (Homo sapiens)
TEST READOUT: inhibition
OBSERVED RESULT: 4
--
COMPOUND: CN(C)CCN(Cc1ccccc1)c1ccccn1
TARGET ENTITY: Protein-arginine deiminase type-4 (Homo sapiens)
TEST READOUT: inhibition
OBSERVED RESULT: 6
--
COMPOUND: Cc1nn(-c2ccccc2)c(C)c1NC(=O)COc1ccc(Cl)cc1Cl
TARGET ENTITY: Protein-arginine deiminase type-4 (Homo sapiens)
TEST READOUT: inhibition
OBSERVED RESULT: 16
--
COMPOUND: N#CCCn1[nH]c(-c2ccccc2)cc1=O
TARGET ENTITY: Protein-arginine deiminase type-4 (Homo sapiens)
TEST READOUT: inhibition
OBSERVED RESULT: 28
--
COMPOUND: CN(C)CCCNc1cn[nH]c(=O)c1Cl
TARGET ENTITY: Protein-arginine deiminase type-4 (Homo sapiens)
TEST READOUT: inhibition
OBSERVED RESULT: 42
--
COMPOUND: S=C(NCc1ccco1)Nc1cccc(Cl)c1
TARGET ENTITY: Protein-arginine deiminase type-4 (Homo sapiens)
TEST READOUT: inhibition
OBSERVED RESULT: 11
--
COMPOUND: CC(NC(=O)Nc1ccc(O)cc1)(C(F)(F)F)C(F)(F)F
TARGET ENTITY: Protein-arginine deiminase type-4 (Homo sapiens)
TEST READOUT: inhibition
OBSERVED RESULT: 14
--
COMPOUND: Cc1ccc(C2CC(=O)Oc3cc(O)ccc32)cc1 (configuration not stated)
TARGET ENTITY: Protein-arginine deiminase type-4 (Homo sapiens)
TEST READOUT: inhibition
OBSERVED RESULT: 12
--
COMPOUND: COc1cccc(/C=C2/CN(C)CC3=C2OC(N)=C(C#N)C3c2cccc(OC)c2)c1 (configuration not stated)
TARGET ENTITY: Protein-arginine deiminase type-4 (Homo sapiens)
TEST READOUT: inhibition
OBSERVED RESULT: 20
--
COMPOUND: Cn1c(=O)c2c(ncn2CC(=O)Nc2nc(-c3ccccc3Cl)cs2)n(C)c1=O
TARGET ENTITY: Protein-arginine deiminase type-4 (Homo sapiens)
TEST READOUT: inhibition
OBSERVED RESULT: 25
